target: P450cam Mutant Y96A (Pseudomonas putida, UniProt P00183, C335A/Y97A); assay type: binding, P. putida; conditions: -- = no shift, nd = not determined; also: unit not given here
Sequence (P00183 2-415 Y97A/C335A): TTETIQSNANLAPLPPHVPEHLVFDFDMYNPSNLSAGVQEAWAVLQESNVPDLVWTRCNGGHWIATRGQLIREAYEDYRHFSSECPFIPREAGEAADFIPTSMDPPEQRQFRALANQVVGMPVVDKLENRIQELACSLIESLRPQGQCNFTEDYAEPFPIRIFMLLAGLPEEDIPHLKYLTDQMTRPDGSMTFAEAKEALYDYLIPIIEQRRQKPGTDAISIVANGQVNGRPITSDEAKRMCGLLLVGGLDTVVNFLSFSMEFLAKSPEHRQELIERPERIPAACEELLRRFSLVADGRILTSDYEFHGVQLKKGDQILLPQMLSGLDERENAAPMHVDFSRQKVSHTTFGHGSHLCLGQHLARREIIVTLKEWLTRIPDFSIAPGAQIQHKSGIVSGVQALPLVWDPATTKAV
Sequence (P16640 whole entry, further chain): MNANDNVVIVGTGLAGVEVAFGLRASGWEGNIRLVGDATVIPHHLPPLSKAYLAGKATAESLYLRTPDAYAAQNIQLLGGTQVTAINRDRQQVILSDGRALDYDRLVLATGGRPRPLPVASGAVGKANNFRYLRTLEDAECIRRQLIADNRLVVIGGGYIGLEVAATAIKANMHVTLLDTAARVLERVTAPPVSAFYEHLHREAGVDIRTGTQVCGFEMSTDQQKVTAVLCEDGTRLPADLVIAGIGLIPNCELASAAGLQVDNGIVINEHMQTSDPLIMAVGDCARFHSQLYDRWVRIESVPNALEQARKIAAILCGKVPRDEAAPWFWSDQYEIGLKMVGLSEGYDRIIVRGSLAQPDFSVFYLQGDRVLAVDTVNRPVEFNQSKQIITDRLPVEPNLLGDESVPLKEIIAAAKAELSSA
Sequence (P00259 whole entry, further chain): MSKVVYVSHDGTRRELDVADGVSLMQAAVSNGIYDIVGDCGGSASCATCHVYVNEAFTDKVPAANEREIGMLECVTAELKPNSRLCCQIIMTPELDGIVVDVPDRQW
Mutant Y96A ΔSpin high/low under 40 gets criterion met, anything at or over 40 gets criterion not met.

Below, 5 molecules whose answers are already recorded.
CCCCCCCCCCC    criterion met
C=CC(=C)C    criterion met
C1CC[C@H]2CCCC[C@@H]2C1 [trans-Decahydro naphthalene]    criterion not met
CCCCCCCCCCCC    criterion met
CC1(C)[C@@H]2CC[C@@]1(C)C(=O)C2=O [(1R)-(-)-Camphorquinone]    criterion not met

Here is another molecule to look at.
Input "c1ccc(Cc2ccccc2)cc1" ; condition: Mutant Y96A ΔSpin high/low strictly below 40. Does it hold?
criterion not met
